B1: SMTNL2 (parent)
chain: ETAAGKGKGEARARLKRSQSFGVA

variants of: B1; assay: protein stability index of a GFP-peptide fusion (GPS, HEK-293T) (PSI 1-6); higher = more stable; conditions: c terminus: a fixed tail appended;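 further: lentivirally expressed fusions sorted by FACS into six bins by GFP to DsRed ratio, PSI derived from sequencing read proportions per bin multiplied by bin number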
Returns one of Satisfied or Not satisfied; Satisfied when protein stability index is >= 4.

Known results for variants:
{"variant-label": "F21R", "label-class": "Satisfied"}
{"variant-label": "V23N", "label-class": "Satisfied"}

# input Could you verify whether the entry "A4Q" shows protein stability index of no less than 4?
# output Satisfied

# input And the next one, "L15V" ?
# output Satisfied

# input What about "G22Y" ?
# output Not satisfied

# input And "E1L" ?
# output Satisfied

# input Same question for "G22H" please.
# output Satisfied

# input Next entry: "A11G"
# output Satisfied

# input Entry "Q19I" please
# output Not satisfied

# input Proceed to "R14T"
# output Satisfied
